Provenance of the data: PubChem BioAssay AID1347422

# system: Sulfhydryl oxidase 1 (Homo sapiens)
# assay-info: QSOX1 binders by thermal stabilization, confirmation, QSOX1 inhibitor project, biophysical, protein thermal shift, single concentration (AID 1347422);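 also: dTm is compound Tm minus mean Tm of DMSO-only wells on that plate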
# condition-info: recombinant hQSOX1 thermal shift, Sypro Orange, at 25 µM, stronger effect = higher value
The full ranking holds about 1,000 compounds; the median of “thermal shift dTm” is about 0.19, and the highest 2% start at about 1.7. Only a selection was taken, and the highest values are over-represented in it overall. Active and inactive are the calls of the source.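 The calls were made as follows: active = mean rise in melting temperature of at least 1 degC over same-plate control wells; inactive = below that, where a call was filed.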
Exercise: state measured thermal shift dTm for each of the compounds provided.

Solved cases below.
// lookup thermal shift dTm for CCCOC(=O)c1c(NC(=O)C2CC=CCC2C(=O)O)sc(C)c1-c1ccc(F)cc1 (stereo unspecified)
0.77 °C

// lookup thermal shift dTm for `O=C(/C=C/c1ccco1)NCc1cccc(CNC(=O)/C=C/c2ccco2)c1`
1.04 °C (active)

// lookup thermal shift dTm for `CCCn1c(=O)[nH]c(=O)c2c(-c3cccc4ccccc34)ccnc21`
0.25 °C

// lookup thermal shift dTm for `CCOc1ccc2nc(NC(=O)CCCCC(=O)O)sc2c1`
-0.04 °C (inactive)

// lookup thermal shift dTm for `COc1ccc(NC(=O)c2ccoc2)cc1Cl`
0.23 °C

// lookup thermal shift dTm for `O=C(Nc1cccc(Cl)c1)N1CCC(C(O)(c2ccccc2)c2ccccc2)CC1`
0.21 °C

// lookup thermal shift dTm for `Cc1nnc(NC(=O)c2ccc(NC(=O)c3ccco3)cc2)s1`
0.7 °C

// lookup thermal shift dTm for `Cc1cc(N(C)C)nc(N2CCN(C(=O)Nc3cccc(F)c3)CC2)n1`
-0.08 °C (inactive)

// lookup thermal shift dTm for `CCc1nc2sc(C(=O)c3ccccc3)c(N)c2c2c1CCCC2`
0.11 °C

// lookup thermal shift dTm for `CC(=O)Nc1ccc(NC(=O)CCc2nc(-c3ccccc3)no2)cc1`
0.14 °C

Further cases:
// lookup thermal shift dTm for `COc1ccc(-c2c(-c3ccc(OC)c(C)c3O)n[nH]c2C(F)(F)F)cc1`
0.76 °C
